Data credit: ChEMBL document CHEMBL1150687

tested on: HeLa; assay: Cytotoxicity against human HeLa cells; type: functional, cell-based
Measurement Type: IC50
Record the result as a number with its unit.

Some solved entries appear below for comparison.
CO[C@@]12[C@H](COC(N)=O)C3=C(C(=O)C(C)=C(N)C3=O)N1C[C@@H]1N[C@@H]12: 0.015 µg/mL
CC(=O)O[C@@H]1C[C@@H]2[C@@]3(C)CCCC(C)(C)[C@@H]3CC[C@@]2(C)[C@@H]2CC=C3C(=O)O[C@@H](O)[C@@H]3[C@@]12C: 26 µg/mL
CC1(C)CCC[C@]2(C)[C@H]3C[C@@H](O)[C@]4(C)c5cocc5CC[C@H]4[C@]3(C)CC[C@@H]12: 19.5 µg/mL

Please examine the following record next.
compound `CC(=O)O[C@@H]1C[C@@H]2[C@@]3(C)CCCC(C)(C)[C@@H]3CC[C@@]2(C)[C@@H]2CC=C3CO[C@@H](O)[C@@H]3[C@@]12C` , IC50 observed: 22.5 µg/mL

====

system: KB; experiment: Cytotoxicity against human KB cells; format: functional, cell-based
Measurement Type: IC50 (mg/L)
API: value field is a number in mg/L; no unit string.

Some solved entries appear below for comparison.
CO[C@@]12[C@H](COC(N)=O)C3=C(C(=O)C(C)=C(N)C3=O)N1C[C@@H]1N[C@@H]12: 0.015
CC(=O)O[C@@H]1C[C@@H]2[C@@]3(C)CCCC(C)(C)[C@@H]3CC[C@@]2(C)[C@@H]2CC=C3C(=O)O[C@@H](O)[C@@H]3[C@@]12C: 18.5
CC(=O)O[C@@H]1C[C@@H]2[C@@]3(C)CCCC(C)(C)[C@@H]3CC[C@@]2(C)[C@@H]2CC=C3CO[C@@H](O)[C@@H]3[C@@]12C: 16.2
CO[C@@H]1C[C@H]2[C@]3(C)CC[C@H]4C(C)(C)CCC[C@]4(C)[C@H]3C[C@@H](OC(C)=O)[C@]2(C)C2=C1C(=O)O[C@H]2O: 15.6

compound `CC1(C)CCC[C@]2(C)[C@H]3C[C@@H](O)[C@]4(C)[C@@H]5C(=CC[C@H]4[C@]3(C)CC[C@@H]12)C(=O)O[C@H]5O` , IC50 observed: 14.3

compound `CC1(C)CCC[C@]2(C)[C@H]3C[C@@H](O)[C@]4(C)[C@H]5COC(=O)C5=CC[C@H]4[C@]3(C)CC[C@@H]12` , IC50 observed: 17.1

====

system: HeLa; experiment: Cytotoxicity against human HeLa cells; format: functional, cell-based
Measurement Type: IC50 (µg/mL)
API: value field is a number in µg/mL; no unit string.

Some solved entries appear below for comparison.
CC1(C)CCC[C@]2(C)[C@H]3C[C@@H](O)[C@]4(C)[C@H]5COC(=O)C5=CC[C@H]4[C@]3(C)CC[C@@H]12: 16.5
CO[C@@H]1C[C@H]2[C@]3(C)CC[C@H]4C(C)(C)CCC[C@]4(C)[C@H]3C[C@@H](OC(C)=O)[C@]2(C)C2=C1C(=O)O[C@H]2O: 5.3

Please examine the following record next.
molecule `CC1(C)CCC[C@]2(C)[C@H]3C[C@@H](O)[C@]4(C)[C@@H]5C(=CC[C@H]4[C@]3(C)CC[C@@H]12)C(=O)O[C@H]5O` , IC50 observed: 15
